Target: feline FcRn complex (FcRn-α subunit and β-microglobulin), biotin labeled (feline)
Experiment: SPR, pH 6
ATTRIBUTE_MEASURED: pKd
pKd here is simply -log10 of the concentration when that concentration is written in mol/L.

feline IgG1a Q311W (antibody, part only; not given: Variable domains, not shown: another chain or arm of the molecule) constant: ASTTAPSVFPLAPSCGTTSGATVALACLVLGYFPEPVTVSWNSGALTSGVHTFPAVLQASGLYSLSSMVTVPSSRWLSDTFTCNVAHPPSNTKVDKTVRKTDHPPGPKPCDCPKCPPPEMLGGPSIFIFPPKPKDTLSISRTPEVTCLVVDLGPDDSDVQITWFVDNTQVYTAKTSPREEQFNSTYRVVSVLPILHWDWLKGKEFKCKVNSKSLPSPIERTISKAKGQPHEPQVYVLPPAQEELSRNKVSVTCLIKSFHPPDIAVEWEITGQPEPENNYRTTPPQLDSDGTYFVYSKLSVDRSHWQRGNTYTCSVSHEALHSHHTQKSLTQSPGK	8.38

Alright, here's another binder for you.
[Q] Which pKd reading was recorded for the binder feline IgG1a S434M (antibody, part only; not given: Variable domains, not shown: another chain or arm of the molecule) constant: ASTTAPSVFPLAPSCGTTSGATVALACLVLGYFPEPVTVSWNSGALTSGVHTFPAVLQASGLYSLSSMVTVPSSRWLSDTFTCNVAHPPSNTKVDKTVRKTDHPPGPKPCDCPKCPPPEMLGGPSIFIFPPKPKDTLSISRTPEVTCLVVDLGPDDSDVQITWFVDNTQVYTAKTSPREEQFNSTYRVVSVLPILHQDWLKGKEFKCKVNSKSLPSPIERTISKAKGQPHEPQVYVLPPAQEELSRNKVSVTCLIKSFHPPDIAVEWEITGQPEPENNYRTTPPQLDSDGTYFVYSKLSVDRSHWQRGNTYTCSVSHEALHMHHTQKSLTQSPGK ?
[A] 8.55
